meta.source: ChEMBL document CHEMBL5335790

target: BAG family molecular chaperone regulator 3 (Homo sapiens); assay: Binding affinity to CM4 sensorchip immobilized C-terminal His tagged human BAG3 transfected in HEK293T cells assessed as binding capacity at 50 uM by SPR analysis
Sequence (O95817 whole entry): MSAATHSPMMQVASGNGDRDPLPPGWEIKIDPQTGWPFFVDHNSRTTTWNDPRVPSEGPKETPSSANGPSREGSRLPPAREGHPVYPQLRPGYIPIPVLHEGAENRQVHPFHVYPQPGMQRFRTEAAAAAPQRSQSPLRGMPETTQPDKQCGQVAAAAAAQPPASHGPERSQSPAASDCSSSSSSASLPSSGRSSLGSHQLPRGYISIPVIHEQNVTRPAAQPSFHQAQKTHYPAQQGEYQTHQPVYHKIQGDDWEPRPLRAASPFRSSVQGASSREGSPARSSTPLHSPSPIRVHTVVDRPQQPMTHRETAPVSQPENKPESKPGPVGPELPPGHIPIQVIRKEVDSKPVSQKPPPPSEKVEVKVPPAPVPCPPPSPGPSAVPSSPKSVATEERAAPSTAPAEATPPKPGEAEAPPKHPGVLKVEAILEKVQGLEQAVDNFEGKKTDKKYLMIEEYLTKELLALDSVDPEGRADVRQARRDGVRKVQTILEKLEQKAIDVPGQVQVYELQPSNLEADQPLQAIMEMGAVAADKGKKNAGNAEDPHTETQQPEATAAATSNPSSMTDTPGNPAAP
Examples of compounds with documented Activity follow.
parameter.measured: Activity

>>> obs_value("CCOC(=O)C(C)N1C(=O)S/C(=C\\c2cc(Cl)c(O)c(Cl)c2)C1=O (racemic)")
"< 5 RU"
>>> obs_value("CCOC(=O)C(C)N1C(=O)S/C(=C\\c2ccc(O)c(O)c2)C1=O (racemic)")
"> 5 RU"
>>> obs_value("O=C(CN1C(=O)S/C(=C\\c2ccc(O)c(O)c2)C1=O)N1CCOCC1")
"> 5 RU"
>>> obs_value("CCOC(=O)C(C)N1C(=O)S/C(=C\\c2ccc(Cl)c(O)c2)C1=O (racemic)")
"< 5 RU"
>>> obs_value("CCOC(=O)C(C1CC1)N1C(=O)S/C(=C\\c2ccc(O)c(O)c2)C1=O (racemic)")
"> 5 RU"
>>> obs_value("CC(C(=O)N1CCOCC1)N1C(=O)S/C(=C\\c2ccc(N3CCCC3)cc2)C1=O (racemic)")
"< 5 RU"
>>> obs_value("CCOC(=O)C(c1ccccc1)N1C(=O)S/C(=C\\c2ccc(O)c(O)c2)C1=O (racemic)")
"> 5 RU"
>>> obs_value("CC(C(=O)N1CCC2(CC1)OCCO2)N1C(=O)S/C(=C\\c2ccc(O)c(O)c2)C1=O (racemic)")
"< 5 RU"
>>> obs_value("CCOC(=O)C(C)N1C(=O)S/C(=C\\c2ccc3cn[nH]c3c2)C1=O (racemic)")
"< 5 RU"
>>> obs_value("CCOC(=O)C(C)N1C(=O)S/C(=C\\c2ccc3[nH]ncc3c2)C1=O (racemic)")
"< 5 RU"
>>> obs_value("CCOC(=O)Cc1csc(Oc2ccc(O)cc2)n1")
"< 5 RU"
>>> obs_value("CCOC(=O)C(CC)N1C(=O)S/C(=C\\c2ccc(O)c(O)c2)C1=O (racemic)")
"> 5 RU"

* * *

system: RS4-11; assay: Antiproliferative activity against human RS4-11 cells assessed as cell growth inhibition incubated for 72 hrs by resazurin dye based analysis; format: functional
Recorded measurements of GI50, one per entry
parameter.measured: GI50

>>> obs_value("CC(C(=O)N1CC2(COC2)C1)N1C(=O)S/C(=C\\c2ccc(O)c(O)c2)C1=O (racemic)")
"> 100 µM"
>>> obs_value("CC(C(=O)N1CCC2(CC1)OCCO2)N1C(=O)S/C(=C\\c2ccc(O)c(O)c2)C1=O (racemic)")
"13.4 µM"
>>> obs_value("CCOC(=O)CN1C(=O)S/C(=C\\c2ccc(O)c(F)c2)C1=O")
"> 100 µM"
